# credit: patent US7179831B2

# assay-target: MMP-12 (Homo sapiens)
# Construct: All the enzymes are recombinant human active domains from E. coli (Biomol)
# Sequence (P39900 106-263 limits assumed): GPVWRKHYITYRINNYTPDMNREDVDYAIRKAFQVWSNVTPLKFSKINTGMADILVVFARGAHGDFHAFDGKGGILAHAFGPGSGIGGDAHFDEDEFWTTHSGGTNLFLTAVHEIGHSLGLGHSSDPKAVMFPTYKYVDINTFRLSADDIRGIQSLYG
# assay-overview: MMP inhibitory assay, fluorescent substrate, MMP-12
# experimental-parameters: recombinant human active domain, substrate 4 uM, room temperature
pIC50: −log10 of the molar value.
metric-name: pIC50

A = COc1ccc(COc2ccc(Sc3ccoc3C3NC(=O)NC3=O)cc2)cc1 (stereo not drawn) [IVd]
B = COc1cc(COc2ccc(Sc3ccoc3C3NC(=O)NC3=O)cc2)cc(OC)c1 (stereo not drawn) [IVg]
C = O=C1NC(=O)C(c2occc2Sc2ccc(OCc3ccccc3Cl)cc2)N1 (stereo not drawn) [IVj]
D = O=C1NC(=O)C(c2occc2Sc2ccc(OCc3cccc(C(F)(F)F)c3)cc2)N1 (stereo not drawn) [IVq]
// sort listed items: pIC50 descending Could you list the labels in the order requested? A, D, C, B

A = Cc1ccc(COc2ccc(Sc3ccoc3C3NC(=O)NC3=O)cc2)cc1 (stereo not drawn) [IVk]
B = COc1ccccc1COc1ccc(Sc2ccoc2C2NC(=O)NC2=O)cc1 (stereo not drawn) [IVf]
C = Cc1ccccc1COc1ccc(Sc2ccoc2C2NC(=O)NC2=O)cc1 (stereo not drawn) [IVp]
D = O=C1NC(=O)C(c2occc2Sc2ccc(OCc3ccc(OCc4ccccc4)cc3)cc2)N1 (stereo not drawn) [IVb]
# desc sort on pIC50 across 4 compounds Could you list the labels in the order requested? A, C, D, B
(A: 7.82, C: 7.38, D: 7.08, B: 6.69)
